test: Cytotoxicity against african green monkey Vero cells
Assay type: cell-based
runConditions: chlorocebus sabaeus

| molecule | CC50 [µM] |
| --- | --- |
| COc1cc2c(cc1O)C[C@H]1c3c(cc(O)c(OC)c3-2)CCN1C | 250 |
| COc1cccc2c1C(=O)c1nccc3cc4c(c-2c13)OCO4 | 28 |
| COc1cc2c(cc1O)C[C@@H]1NCCc3cc4c(c-2c31)OCO4 | 107 |
| COc1cc2c(cc1OC)-c1c(OC)c(OC)cc3c1[C@H](C2)N(C)CC3.O=C(O)/C=C/C(=O)O [GLAUCINE FUMARATE] | 142 |
